// kcat lookup, one value per entry
Test: PLD activity (kcat/Km) of lyso-PAF-PLD and site-specific mutants against lyso-PAF
Format: biochemical
Settings: substrate lyso-PAF 0 to 5 mM, pH 7.5, 37° C.
Quick reminder: number only, in s⁻¹, skip the unit.

Given the molecule M45G: lyso-PAF-PLD mutant, G substituted for M in the 45th position of SEQ ID NO: 9 (protein) MTTRTTDNPWLDARVLNMAHAGGENEAPANTLYAFKRAVKLGANGLELDVQSTKDDQLVVIHNATVDQTTDGTGKVRDLTFEQVHELDAAYNFIPGRHAVPGEPPESYPLRGVRTGEKKPPPGYQPSDFAIPKLADVLEAFPRTPINIEIKGTSDADIPSFLHNAKLLARLLKKTGRTDFIVTSFNDLAVAKFHLLAPDIPIAPGMAGLAAYFLLGVKPMHGTVALQIPVRYQGLEIATPEFIRRAHADGYAVHVWFSGTAPDDEATYNRIIDSCADGLMPAYPALLERILDERGIERPGRPGVDPCG , what is its reported kcat? 82

// query: M45L: lyso-PAF-PLD mutant, L substituted for M in the 45th position of SEQ ID NO: 9 (protein) MTTRTTDNPWLDARVLNMAHAGGENEAPANTLYAFKRAVKLGANLLELDVQSTKDDQLVVIHNATVDQTTDGTGKVRDLTFEQVHELDAAYNFIPGRHAVPGEPPESYPLRGVRTGEKKPPPGYQPSDFAIPKLADVLEAFPRTPINIEIKGTSDADIPSFLHNAKLLARLLKKTGRTDFIVTSFNDLAVAKFHLLAPDIPIAPGMAGLAAYFLLGVKPMHGTVALQIPVRYQGLEIATPEFIRRAHADGYAVHVWFSGTAPDDEATYNRIIDSCADGLMPAYPALLERILDERGIERPGRPGVDPCG 147

// query: M45D: lyso-PAF-PLD mutant, D substituted for M in the 45th position of SEQ ID NO: 9 (protein) MTTRTTDNPWLDARVLNMAHAGGENEAPANTLYAFKRAVKLGANDLELDVQSTKDDQLVVIHNATVDQTTDGTGKVRDLTFEQVHELDAAYNFIPGRHAVPGEPPESYPLRGVRTGEKKPPPGYQPSDFAIPKLADVLEAFPRTPINIEIKGTSDADIPSFLHNAKLLARLLKKTGRTDFIVTSFNDLAVAKFHLLAPDIPIAPGMAGLAAYFLLGVKPMHGTVALQIPVRYQGLEIATPEFIRRAHADGYAVHVWFSGTAPDDEATYNRIIDSCADGLMPAYPALLERILDERGIERPGRPGVDPCG 157

Data provenance is patent US10900063B2.
